- Tested on: murine TTC39B mRNA
- Test: Dose-dependent antisense inhibition of murine TTC39B in mouse primary hepatocytes (Example 2)
- Type: cell-based
- Cond: 200 nM, cytofectin, ~16 h
Oligonucleotides are written 5' to 3', each unit as a sugar letter and its base; * is a phosphorothioate linkage, no mark a phosphodiester; rarer units and linkages stand in square brackets, end groups in braces. Plain capitals give the bases only. e = 2'-O-(2-methoxyethyl) (MOE); [5mC] = 5-methylcytosine; d = 2'-deoxy (DNA)
Param threshold (80%) applies to percent inhibition of TTC39B mRNA; output criterion met when value >= threshold, criterion not met when value < threshold.

Entry sequence | Class label
TCGAAATGTTTCTTGAGCCT (antisense eT*e[5mC]*eG*eA*eA*dA*dT*dG*dT*dT*dT*d[5mC]*dT*dT*dG*eA*eG*e[5mC]*e[5mC]*eT) [ISIS 447119] | criterion not met
GAGTCCACCTTTGATGAAGT (antisense eG*eA*eG*eT*e[5mC]*d[5mC]*dA*d[5mC]*d[5mC]*dT*dT*dT*dG*dA*dT*eG*eA*eA*eG*eT) [ISIS 447110] | criterion met
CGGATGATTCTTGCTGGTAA (antisense e[5mC]*eG*eG*eA*eT*dG*dA*dT*dT*d[5mC]*dT*dT*dG*d[5mC]*dT*eG*eG*eT*eA*eA) [ISIS 447114] | criterion met
TGTCAGTGACAGTGGCAGCT (antisense eT*eG*eT*e[5mC]*eA*dG*dT*dG*dA*d[5mC]*dA*dG*dT*dG*dG*e[5mC]*eA*eG*e[5mC]*eT) [ISIS 447159] | criterion met

The origin of these recorded values is patent US20120270929A1.
